Entry source: patent US4686308A

assay: Acute toxicity (LD50); conditions: mouse, in vivo, ip
measurement name: LD50

Q. Given the entry "O=CNC=Cc1cc(O)ccc1O" , report its measured LD50.
A. ≥ 200 mg/kg
